meta.source: paper PMC9455983

Molecular target: kappa-opioid receptor (KOR) (Cavia porcellus, UniProt P41144)
Construct: Guinea pig cortices and cerebella were homogenized using 50 mM Tris, pH 7.4; from tissue; host or cells: guinea pig cortex and cerebellum membranes
Assay: KOR radioligand competition binding assay ([3H]U69,593)
Set-up: species or system guinea pig
Settings: Kappa screening results, mean of two experiments; read-out: Ki
Label Y when Ki < 2 µM; otherwise N.

INSERT INTO assay_data (smiles_representation, category_label) VALUES
  ('Cc1cc(O)cc(C)c1C[C@H]1CN([C@@H](Cc2ccc(O)cc2)CN2C(=N)NC[C@@H]2C)C(=N)N1', 'Y'),
  ('CC(C)C[C@H]1CN([C@@H](Cc2ccc(O)cc2)CN2C(=N)NC[C@@H]2C)C(=N)N1', 'N'),
  ('Cc1cc(O)cc(C)c1C[C@H]1CN([C@@H](Cc2c(C)cc(O)cc2C)CN2C(=N)NC[C@@H]2Cc2c(C)cc(O)cc2C)C(=N)N1', 'N'),
  ('CC(C)C[C@@H](CN1C(=N)NC[C@@H]1Cc1ccccc1)N1C[C@H](Cc2ccc(O)cc2)NC1=N', 'N'),
  ('Cc1cc(O)cc(C)c1C[C@H]1CNC(=N)N1C[C@H](Cc1ccccc1)N1C[C@H](Cc2ccccc2)NC1=N', 'Y');

Incoming: Is it true that Ki reported for CC(C)C[C@H]1CN([C@@H](Cc2ccc(O)cc2)CN2C(=N)NC[C@@H]2Cc2ccc(O)cc2)C(=N)N1 is less than 2 µM?
Outgoing: N

Incoming: Is it true that Ki reported for CC(C)C[C@@H](CN1C(=N)NC[C@@H]1Cc1ccc(O)cc1)N1C[C@H](Cc2ccccc2)NC1=N is less than 2 µM?
Outgoing: N

Incoming: Is it true that Ki reported for CC(C)C[C@H]1CN([C@@H](Cc2ccccc2)CN2C(=N)NC[C@@H]2Cc2ccc(O)cc2)C(=N)N1 is less than 2 µM?
Outgoing: N
